Kindly find below pKi information for Carbonic anhydrase 2 (Homo sapiens) taken from the literature.
Please keep in mind that pKi is minus log10 of the molar concentration; only the number is needed.

Given item O=C(C=Cc1cccc(O)c1)c1ccc2[nH]c(=O)oc2c1 , the value recorded as its pKi is 4.45

Given item NS(=O)(=O)c1ccc(NC(=O)NCc2cn(CCCS(=O)(=O)[O-])nn2)cc1.[Na+] , the value recorded as its pKi is 8.13

Given item NS(=O)(=O)c1ccccc1Nc1ccnc2cc(C(F)(F)F)cc(C(F)(F)F)c12 , the value recorded as its pKi is 6.95

Given item CN1C(=O)C(=C2C(=O)Nc3c(Br)cccc32)SC1=Nc1ccc(S(N)(=O)=O)cc1 , the value recorded as its pKi is 5.06
